- system-under-test: hK2 (Homo sapiens)
- Construct: made in house
- measurement-protocol: Kinetic constants of AMC substrate hydrolysis by hK2
- Assay type: biochemical
Residues, ends and D or L forms follow the SMILES beside them. *: point of attachment. AMC = Cc1cc(=O)oc2cc(N*)ccc12; Boc = CC(C)(C)OC(=O)*

compound	hydrolysis by hK2 (in words)
Cc1cc(=O)oc2cc(NC(=O)[C@H](CCCNC(=N)N)NC(=O)[C@H](CC(C)C)NC(=O)[C@H](CC(C)C)NC(=O)OCc3ccccc3)ccc12 [Leu Leu Arg-AMC, Z-Leu-Leu-Arg-AMC]	with lower efficiency
Cc1cc(=O)oc2cc(NC(=O)[C@H](CCCNC(=N)N)NC(=O)[C@@H]3CCCN3C(=O)[C@@H](NC(=O)OC(C)(C)C)C(C)C)ccc12 [Val Pro Arg-AMC, boc-Val-Pro-Arg-AMC] (Boc-Val-Pro-Arg-{AMC})	with lower efficiency

----------
- measurement-protocol: Serum hydrolysis of hK2 substrates
- Type: in vitro ADME
- setup-conditions: Table 4; 50% fresh human serum in 50 mM Tris, 0.1 M NaCl, pH 7.8
measured-endpoint: Serum Hydrolysis Rate (FU/hr)
Please respond with the number in FU/hr and leave the unit unwritten.

                                  substance  readout_value
0  SEQ ID NO: 87: hK2 substrate peptide, single letter sequence P7-P′1 (GSNTEKHL; listed as Homo sapiens)           0.03

Here is the next item to consider.
// query For the substance shown here, SEQ ID NO: 81: hK2 substrate peptide, single letter sequence P7-P′1 (GSKGHFHL; listed as Homo sapiens) , give the reported Serum Hydrolysis Rate.
// result 0.10

----------
- measurement-protocol: Serum hydrolysis of hK2 substrates
- Type: in vitro ADME
- setup-conditions: Table 5; 50% fresh human serum in 50 mM Tris, 0.1 M NaCl, pH 7.8
The entries below come with measured Serum Hydrolysis Rate values attached.
Please respond with the number in FU/hr and leave the unit unwritten.

                                  substance  readout_value
0  SEQ ID NO: 116: hK2 substrate peptide, single letter sequence P6-P′1 (GGKARQL; listed as Homo sapiens)           0.13
1  SEQ ID NO: 115: hK2 substrate peptide, single letter sequence P6-P′1 (GGKANRL; listed as Homo sapiens)           0.01
2  SEQ ID NO: 98: hK2 substrate peptide, single letter sequence P6-P′1 (GGAKRRL; listed as Homo sapiens)           0.02

Here is the next item to consider.
// query For the substance shown here, SEQ ID NO: 103: hK2 substrate peptide, single letter sequence P7-P′1 (GAEQKRRL; listed as Homo sapiens) , give the reported Serum Hydrolysis Rate.
// result 0.10

----------
The entries below come with measured hK2 Hydrolysis Rate values attached.
- system-under-test: hK2 (Homo sapiens, UniProt P20151)
- Construct: made in house
- Sequence (P20151 25-261): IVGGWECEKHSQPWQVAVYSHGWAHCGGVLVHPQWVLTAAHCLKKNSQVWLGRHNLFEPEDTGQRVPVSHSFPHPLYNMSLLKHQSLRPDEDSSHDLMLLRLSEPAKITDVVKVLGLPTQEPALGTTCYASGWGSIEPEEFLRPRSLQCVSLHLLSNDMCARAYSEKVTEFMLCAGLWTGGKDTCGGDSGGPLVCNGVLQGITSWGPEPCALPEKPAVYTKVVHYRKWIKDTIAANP
- measurement-protocol: Hydrolysis of hK2 substrates by hK2
- Format: biochemical
- setup-conditions: Table 5; hK2 1 μg/ml, 50 mM Tris, 0.1 M NaCl, pH 7.8
- Method: Hydrolyses of particular hK2 substrates were carried out at a hK2 concentrations of 1 μg/ml in 50 mM Tris buffer, with 0.1 M NaCl, at pH 7.8. Serum hydrolysis measurements were carried out in 50% fresh human serum in 50 mM Tris buffer, with 0.1 M NaCl, at pH 7.8. The single letter amino acid code was used to designate the peptide sequences used for Table 4. The units FU are arbitrary fluorescence units. The entries “U.D.” were for measurements of less than 0.01 FU/hour.
Non-standard residues stand in square brackets, D forms with d. No end group written: not given here.
Please respond with the number in FU/hr/m and leave the unit unwritten.

                                  substance  readout_value
0  SEQ ID NO: 110: hK2 substrate peptide, single letter sequence P7-P′1, dL at P′1 (GHEQKRR[dL]; listed as Homo sapiens)         1690.9
1  SEQ ID NO: 117: hK2 substrate peptide, single letter sequence P6-P′1 (GGKARHL; listed as Homo sapiens)          939.3
2  SEQ ID NO: 113: hK2 substrate peptide, single letter sequence P7-P′1 (GHEQKRRE; listed as Homo sapiens)         1473.8
3  SEQ ID NO: 120: hK2 substrate peptide, single letter sequence P6-P′1 (GGKAKKL; listed as Homo sapiens)           77.9
4  SEQ ID NO: 112: hK2 substrate peptide, single letter sequence P6-P′1 (GGKARKL; listed as Homo sapiens)         1602.4
5  SEQ ID NO: 105: hK2 substrate peptide, single letter sequence P6-P′1 (GGKARRL; listed as Homo sapiens)         2171.2

// query For the substance shown here, SEQ ID NO: 109: hK2 substrate peptide, single letter sequence P6-P′1 (GGKAKRL; listed as Homo sapiens) , give the reported hK2 Hydrolysis Rate.
// result 1788.9

// query For the substance shown here, SEQ ID NO: 108: hK2 substrate peptide, single letter sequence P7-P′1 (GHEQARRL; listed as Homo sapiens) , give the reported hK2 Hydrolysis Rate.
// result 1956.4

// query For the substance shown here, SEQ ID NO: 98: hK2 substrate peptide, single letter sequence P6-P′1 (GGAKRRL; listed as Homo sapiens) , give the reported hK2 Hydrolysis Rate.
// result 2773.0

// query For the substance shown here, SEQ ID NO: 66: hK2 substrate peptide, single letter sequence P7-P′1 (GHEQKRRL; listed as Homo sapiens) , give the reported hK2 Hydrolysis Rate.
// result 3366.5

// query For the substance shown here, SEQ ID NO: 101: hK2 substrate peptide, single letter sequence P6-P′1 (GGHKRRL; listed as Homo sapiens) , give the reported hK2 Hydrolysis Rate.
// result 2428.4

// query For the substance shown here, SEQ ID NO: 116: hK2 substrate peptide, single letter sequence P6-P′1 (GGKARQL; listed as Homo sapiens) , give the reported hK2 Hydrolysis Rate.
// result 1021.9

----------
- measurement-protocol: Serum hydrolysis of hK2 substrates
- Assay type: in vitro ADME
- setup-conditions: Table 5; 50% fresh human serum in 50 mM Tris, 0.1 M NaCl, pH 7.8
Non-standard residues stand in square brackets, D forms with d. No end group written: not given here.
The entries below come with measured Serum Hydrolysis Rate values attached.
Please respond with the number in FU/hr and leave the unit unwritten.

Answered examples (3):
In [3]: df
Out[3]:
                                  substance      measured_endpoint  readout_value
0  SEQ ID NO: 114: hK2 substrate peptide, single letter sequence P6-P′1 (GGKAHRL; listed as Homo sapiens)  Serum Hydrolysis Rate           0.10
1  SEQ ID NO: 109: hK2 substrate peptide, single letter sequence P6-P′1 (GGKAKRL; listed as Homo sapiens)  Serum Hydrolysis Rate           0.14
2  SEQ ID NO: 110: hK2 substrate peptide, single letter sequence P7-P′1, dL at P′1 (GHEQKRR[dL]; listed as Homo sapiens)  Serum Hydrolysis Rate           0.15

// query For the substance shown here, SEQ ID NO: 106: hK2 substrate peptide, single letter sequence P6-P′1 (GGKQRRL; listed as Homo sapiens) , give the reported Serum Hydrolysis Rate.
// result 0.02

----------
- measurement-protocol: Serum hydrolysis of hK2 substrates
- Format: in vitro ADME
- setup-conditions: Table 5; 50% fresh human serum in 50 mM Tris, 0.1 M NaCl, pH 7.8
measured-endpoint: Serum Hydrolysis Rate

In [3]: df
Out[3]:
                                  substance  readout_value
0  SEQ ID NO: 93: hK2 substrate peptide, single letter sequence P7-P′1 (GHAQKRRL; listed as Homo sapiens)     0.08 FU/hr

Here is the next item to consider.
// query For the substance shown here, SEQ ID NO: 96: hK2 substrate peptide, single letter sequence P6-P′1 (GGQKRRL; listed as Homo sapiens) , give the reported Serum Hydrolysis Rate.
// result 0.02 FU/hr

----------
The entries below come with measured hK2 Hydrolysis Rate values attached.
- system-under-test: hK2 (Homo sapiens)
- Construct: made in house
- measurement-protocol: Hydrolysis of hK2 substrates by hK2
- Assay type: biochemical
- setup-conditions: Table 4; hK2 1 μg/ml, 50 mM Tris, 0.1 M NaCl, pH 7.8
Please respond with the number in FU/hr/m and leave the unit unwritten.

Answered examples (5):
                                  substance    measured_endpoint  readout_value
0  SEQ ID NO: 85: hK2 substrate peptide, single letter sequence P7-P′1 (GKDVSGHL; listed as Homo sapiens)  hK2 Hydrolysis Rate          67.55
1  SEQ ID NO: 67: hK2 substrate peptide, single letter sequence P7-P′1 (GGGKARRL; listed as Homo sapiens)  hK2 Hydrolysis Rate        4784.22
2  SEQ ID NO: 90: hK2 substrate peptide, single letter sequence P7-P′1 (GPAHQDHL; listed as Homo sapiens)  hK2 Hydrolysis Rate          48.06
3  SEQ ID NO: 79: hK2 substrate peptide, single letter sequence P7-P′1 (GKDVSGRL; listed as Homo sapiens)  hK2 Hydrolysis Rate         242.91
4  SEQ ID NO: 74: hK2 substrate peptide, single letter sequence P7-P′1 (GSYPSRRL; listed as Homo sapiens)  hK2 Hydrolysis Rate        2060.21

Here is the next item to consider.
// query For the substance shown here, SEQ ID NO: 76: hK2 substrate peptide, single letter sequence P7-P′1 (GHEQKGRL; listed as Homo sapiens) , give the reported hK2 Hydrolysis Rate.
// result 650.80
